# Measurement description: inducers of Vibrio cholerae quorum light production without autoinducers, primary screen, BH1578 luxS cqsA deficient, single point (AID 588436)
# Run conditions: V. cholerae BH1578 lux reporter, luminescence, 6 h, at 18.7 µM; hits give high values
Among all 350,000 compounds or so, about 550 (0.16%) were called active. For the sample, actives were picked, then their nearest neighbours and some compounds at random.
# maps each entry to its activation

Consider the reported activation for these molecules:
COc1ccc(Cl)cc1NC(=O)C1CC(=O)N(c2ccc(F)cc2)C1 (configuration not stated) ... -0.72% (inactive)
COC(=O)c1ccc(N(CC(=O)NC2CCCC2)C(=O)CNC(=O)c2ccco2)cc1 ... -0.813% (inactive)
COC(=O)CN1C(=O)C(C)(C)Oc2ccc(C(=O)Nc3cccc(OC)c3)cc21 ... -0.813% (inactive)
O=S(=O)(NC1CCCCC1)c1ccc(F)c2ccccc12 ... -0.148% (inactive)
O=C(NCc1cccs1)c1ccc(CS(=O)Cc2ccccc2Cl)o1 (configuration not stated) ... -3.95% (inactive)

Request: Could you please provide reported activation for `CNC(=O)N1c2ccccc2C=Cc2ccccc21` ? Thanks!
Result: -0.261% (inactive)

----------
# Measurement description: inducers of Vibrio cholerae quorum light production without autoinducers, primary screen, BH1578 luxS cqsA deficient, single point (AID 588436)
# Run conditions: V. cholerae BH1578 lux reporter, luminescence, 6 h, at 18.7 µM
The campaign covered roughly 350,000 compounds. About 550 (0.16%) were called active. Rule as the data show it: active = activation mostly above about 9.7% (no sharp cut-off); inconclusive = no clear call, values can overlap the other calls; inactive = mostly below about 3.7%. Only a selection was taken, and actives are over-represented in it overall.
Respond with a class label; see active, inactive

Example cases with answers are listed next.
O=C(COc1coc(CN2CCN(c3ccccc3F)CC2)cc1=O)N1CCc2ccccc21 ... inactive
Cc1c(C(=O)O)nnn1-c1nonc1N ... inactive
Cc1cccc(-n2c(SCC(=O)Nc3cccc(S(=O)(=O)NC4=NCCCCC4)c3)nc3ccccc3c2=O)c1C ... inactive
O=[N+]([O-])c1ccc2nc(-c3ccccn3)[nH]c2c1 ... inactive
CC(C[N+](C)(C)C)OC(N)=O (stereo unspecified) ... inactive
COCC1CCCCN1C(=O)c1cc(COc2ccc(C)c(C)c2)on1 (stereo unspecified) ... inactive
CC(=O)OC(C)C[N+](C)(C)C (stereo unspecified) ... active
COC(CNC(=O)Cn1ncc2ccsc2c1=O)OC ... inactive

Request: Each compound tested received a call. Report the one for `COc1ccc(OCc2cn3c(C)cc(C)nc3n2)cc1` .
Result: active

Request: Each compound tested received a call. Report the one for `COc1cccc(CN(C)C(=O)CC23CC4CC(CC(C4)C2)C3)c1OC` .
Result: inactive

Request: Each compound tested received a call. Report the one for `CS(=O)(=O)c1sc(C(=O)NC(=S)Nc2ccc(OC(F)(F)F)cc2)c2c1C=CCC2` .
Result: inactive

Request: Each compound tested received a call. Report the one for `COc1ccc2[nH]c(=O)c(CN(Cc3cccnc3)S(=O)(=O)c3ccccc3F)cc2c1` .
Result: inactive

Request: Each compound tested received a call. Report the one for `COc1cc(N/C=C2\CC(=O)NC(C)=C2C#N)cc(OC)c1OC` .
Result: inactive

----------
# Measurement description: inducers of Vibrio cholerae quorum light production without autoinducers, primary screen, BH1578 luxS cqsA deficient, single point (AID 588436)
# Run conditions: V. cholerae BH1578 lux reporter, luminescence, 6 h, at 18.7 µM
The whole screen tested about 350,000 compounds, of which about 550 (0.16%) were called active. Cut-off read from the data, not from the text of the source: active = activation mostly above about 9.7% (no sharp cut-off); inconclusive = no clear call, values can overlap the other calls; inactive = mostly below about 3.7%. Shown is part of a subset that was picked to be rich in actives.
Respond with a class label; see active, inactive

Request: Each compound tested received a call. Report the one for CCC(=O)NC(NCC1CCCO1)C(Cl)(Cl)Cl (stereo not drawn) .
Result: active

Request: Each compound tested received a call. Report the one for `CCOc1ccc(Oc2nc(C)cc(OC)n2)nn1` .
Result: inactive

Request: Each compound tested received a call. Report the one for CCCS(=O)(=O)N1CCCC(C(=O)N2CCN(c3ccccc3)CC2)C1 (stereo not drawn) .
Result: active
